All values here come from patent EP0029617A1.

# System: Kornkäfer (sitophilus granarius L)
# EXPERIMENT_SUMMARY: whole plant or invertebrate
# Type: in vivo
# MEASUREMENT_PARAMETERS: amine 1 mg/ml mixed 1 : 1 with Talcord 0,01 mg/ml; 3 h
OUTCOME_MEASURE: Wirksamkeit in % Substanz +Talcord

Problem: # get_value(readout='Wirksamkeit in % Substanz +Talcord', item= C=CC(C)(CCC=C(C)C)N1CCCCCC1 (stereo not shown) )
Result: 70,8%

Problem: // query Wirksamkeit in % Substanz +Talcord value for entry N#CCN1CCCCCC1 [N-Hexamethylenimino-aceto-nitril]
Result: 14,8%

Problem: May I ask what Wirksamkeit in % Substanz +Talcord has been recorded for CCOC(=O)C(c1ccccc1)C(C(=O)OCC)N1CCCC1 (stereo not shown) ?
Result: 26,8%

Problem: Requested read-out: Wirksamkeit in % Substanz +Talcord. Entry: O=C(OCc1ccccc1)C(c1ccccc1)N1CCCCC1 (stereo not shown)
Result: 28,0%

Problem: What value of measured Wirksamkeit in % Substanz +Talcord is listed for OCCC(O)N1CCCC1 (stereo not shown) [1-N-Pyrrolidino-propandiol-(1,3)] ?
Result: 78,8%

Problem: Requested read-out: Wirksamkeit in % Substanz +Talcord. Entry: c1ccc(COCCN2CCOCC2)cc1 [N-(2-Benzyloxi-ethyl-(1))-morpholin]
Result: 32,0%

Problem: Need Wirksamkeit in % Substanz +Talcord of CCCCCCCCCCCCCN1CCCC1 [N-1-Tridecyl-pyrrolidin] , thanks.
Result: 44,0%

Problem: Would you kindly share the measured Wirksamkeit in % Substanz +Talcord for CCCCCCCCCCN1CCCC1 [N-1-Decyl-pyrrolidin] ?
Result: 100,0%

Problem: Give the measured Wirksamkeit in % Substanz +Talcord of CC(C)=CCCC(C)CCN1CCCCC1 (stereo not shown) [N-Citronellyl-piperidin] .
Result: 54,8%

Problem: Any idea what Wirksamkeit in % Substanz +Talcord was measured for CCOCCN1CCCCC1 [N-1-Ethoxi-ethyl-(2)-piperidin] ?
Result: 0%

Problem: Which Wirksamkeit in % Substanz +Talcord value is on record for c1ccc(CN2CCCCC2)cc1 [N-Benzyl-piperidin] ?
Result: 32,0%

Problem: # query: Wirksamkeit in % Substanz +Talcord of entry c1ccc(OCCN2CCCC2)cc1 [N-1-2-phenoxiethyl-pyrrolidin]
Result: 28,0%

Problem: Looking for the measured Wirksamkeit in % Substanz +Talcord of "CCCCOCCOCCOCCN1CCCC1" , can you help?
Result: 13,2%

Problem: Record request: Wirksamkeit in % Substanz +Talcord value, item C(CCCCCN1CCCC1)CCCCN1CCCC1 [1,10-N,N-Di-pyrrolidino-decan]
Result: 29,2%

Problem: // lookup Wirksamkeit in % Substanz +Talcord for CCCCCCCCN1CCCC1 [N-1-Octyl-pyrrolidin]
Result: 40,0%

Problem: Request the reported Wirksamkeit in % Substanz +Talcord associated with c1ccc(CN2CCCC2)cc1 [N-Benzyl-pyrrolidin]
Result: 16,0%

Problem: If you can, please state the reported Wirksamkeit in % Substanz +Talcord value of CCCCCCCCCCCCN1CCCCC1C (stereo not shown) [N-1-Dodecyl-2-methyl-piperidin] .
Result: 20,0%

Problem: GET /values?readout=Wirksamkeit in % Substanz +Talcord&item= CCOC(=O)CC(C(=O)OCC)N1CCCCC1 (stereo not shown)
Result: 24,0%

Problem: Look up Wirksamkeit in % Substanz +Talcord for this molecule: C=CC(C)(CCC=C(C)CCC=C(C)C)N1CCCC1 (stereo not shown)
Result: 34,8%

Problem: Quick check: Wirksamkeit in % Substanz +Talcord of CCCCCCCCCCCCCCN1CCCC1 [N-1-Tetradecyl-pyrrolidin] ?
Result: 6,0%

Problem: Fill in: Wirksamkeit in % Substanz +Talcord of CCCCCCCCN1CCCCC1CC (stereo not shown) [N-1-Octyl-2-ethyl-piperidin] is ___
Result: 52,0%

Problem: # lookup: Wirksamkeit in % Substanz +Talcord of C1CCCC(N2CCOCC2)CC1 [N-Cycloheptyl-morpholin]
Result: 34,8%

Problem: # Wirksamkeit in % Substanz +Talcord lookup, item O=C1CCCCC1CN1CCCCC1 (stereo not shown) [2-N-Piperidino-methyl-cyclo-hexanon]
Result: 34,8%

Problem: Given CCOC(=O)C(CC)N1CCCCC1 (stereo not shown) [2-N-Piperidino-buttersäure-ethylester] , state its recorded Wirksamkeit in % Substanz +Talcord.
Result: 52,0%

Problem: # Wirksamkeit in % Substanz +Talcord lookup, item C(CCCCN1CCCCC1)CCCN1CCCCC1 [1,8-N,N-Di-piperidino-octan]
Result: 65,2%

Problem: Need Wirksamkeit in % Substanz +Talcord of CCCCCCCCCCCCCCCCN1CCCCC1CC (stereo not shown) [N-1-Hexadecyl-2-ethyl-piperidin] , thanks.
Result: 18,8%

Problem: Quick one: Wirksamkeit in % Substanz +Talcord of OCC(CO)(CO)CN1CCCCC1 [N-Piperidino-pentaerythrit] ?
Result: 32,0%

Problem: So what does the record say about Wirksamkeit in % Substanz +Talcord for "CC(C)=CCCC(C)=CCN1CCCCC1" ?
Result: 81,2%

Problem: Entry CCC/C=C(\CC)CN1CCCC1 [cis-3-N-pyrrolidino-methyl-hepten-(3)] has what Wirksamkeit in % Substanz +Talcord?
Result: 16,0%

Problem: Wirksamkeit in % Substanz +Talcord lookup needed for CN(C)C(=O)N1CCCCCC1 [N-Dimethyl-carbamoyl-hexa-methylenimin] , thanks.
Result: 53,2%

Problem: Dear colleague, I am looking for the recorded Wirksamkeit in % Substanz +Talcord of the following molecule: CN(C)C(=O)N1CCCCC1 [N-Dimethyl-carbamoyl-piperidin]
Result: 64,0%

Problem: // query Wirksamkeit in % Substanz +Talcord value for entry c1ccc(C(N2CCCCC2)N2CCCCC2)cc1 [Benzal-di-N,N-piperidin]
Result: 18,8%

Problem: What value of measured Wirksamkeit in % Substanz +Talcord is listed for C=CCN1CCCCC1 [N-1-Allyl-piperidin] ?
Result: 13,2%

Problem: Fill blank: measured Wirksamkeit in % Substanz +Talcord of the molecule C=CC(C)(CCC=C(C)C)N1CC1 (stereo not shown) [N-1-Linalyl-aziridin] is ____.
Result: 65,2%

Problem: I'd like to know its Wirksamkeit in % Substanz +Talcord. The molecule in question is "Oc1cc(CN2CCCCC2)c(O)cc1CN1CCCCC1"
Result: 24,0%

Problem: Given the entry c1cc2c(cc1CN1CCCCC1)OCO2 [N-Piperonyl-piperidin] , report its measured Wirksamkeit in % Substanz +Talcord.
Result: 64,0%

Problem: State the recorded Wirksamkeit in % Substanz +Talcord for this entry: CCCCCCCCCCCCCCN1CCOCC1 [N-1-Tetradecyl-morpholin]
Result: 5,2%

Problem: Sample C=CC(C)(CCC=C(C)C)N1CCOCC1 (stereo not shown) [N-1-Linalyl-morpholin] — what was its Wirksamkeit in % Substanz +Talcord?
Result: 33,2%

Problem: Query: Wirksamkeit in % Substanz +Talcord; subject: C#CCN1CCCCC1CC (stereo not shown) [N-1-Propanrgyl-2-ethyl-piperidin]
Result: 37,2%

Problem: # input molecule: OCCN1CCCC1 [2-N-Pyrrolidino-ethanol] ; wanted: its Wirksamkeit in % Substanz +Talcord
Result: 53,2%

Problem: Suppose we examine the molecule CCCCCCCCCN1CCCCCC1 [N-1-Nonyl-hexamethylenimin] ; what Wirksamkeit in % Substanz +Talcord value has been reported?
Result: 84,0%

Problem: Record request: Wirksamkeit in % Substanz +Talcord value, item CCCCCN1CCCC1 [N-1-Pentyl-pyrrolidin]
Result: 100,0%

Problem: Given the entry CCOC(=O)C(CC)N1CCOCC1 (stereo not shown) [2-N-Morpholino-buttersäure-ethylester] , report its measured Wirksamkeit in % Substanz +Talcord.
Result: 32,0%

----------
# System: Kornkäfer (sitophilus granarius L)
# EXPERIMENT_SUMMARY: whole plant or invertebrate
# Type: in vivo
# MEASUREMENT_PARAMETERS: amine 1 mg/ml mixed 1 : 1 with Ripcord 0,01 mg/ml; 3 h
OUTCOME_MEASURE: Wirksamkeit in % Substanz +Ripcord

Problem: I have this compound here, "C(CCCCN1CCCC1)CCCN1CCCC1" , and I need its recorded Wirksamkeit in % Substanz +Ripcord.
Result: 88,0%

Problem: Quick one: Wirksamkeit in % Substanz +Ripcord of "COc1cc(C=O)cc(CN2CCCCC2)c1O" ?
Result: 88,0%

Problem: Consider the compound shown here: CCCCCCCCCCCCN1CCCCC1C (stereo not drawn) What is its recorded Wirksamkeit in % Substanz +Ripcord?
Result: 46,8%

Problem: Look at this compound and give its reported Wirksamkeit in % Substanz +Ripcord. "C=CCN1CCCCC1"
Result: 73,2%

Problem: Look at this compound and give its reported Wirksamkeit in % Substanz +Ripcord. "c1ccc(CN2CCOCC2)cc1"
Result: 45,2%

Problem: // lookup Wirksamkeit in % Substanz +Ripcord for CCCCCCCCCC(C)N1CCCC1 (stereo not drawn)
Result: 98,8%

Problem: I would be grateful if you could share the reported Wirksamkeit in % Substanz +Ripcord for "C(CCCN1CCCCC1)CCN1CCCCC1" .
Result: 57,2%

Problem: Please look up its Wirksamkeit in % Substanz +Ripcord: "CCCCCN1CCOCC1"
Result: 88,0%

Problem: Param item = C=CC(C)(CCC=C(C)C)N1CCOCC1 (stereo not drawn) ; retrieve measured Wirksamkeit in % Substanz +Ripcord.
Result: 92,0%

Problem: Could you tell me which Wirksamkeit in % Substanz +Ripcord is on file for "O=[N+]([O-])c1ccc(CN2CCCCC2)cc1" ?
Result: 49,2%

Problem: Reported Wirksamkeit in % Substanz +Ripcord for "CCCCCCCCCCN1CCCCCC1" : what is it?
Result: 93,2%

Problem: Look at this compound and give its reported Wirksamkeit in % Substanz +Ripcord. "c1cc2c(cc1CN1CCOCC1)OCO2"
Result: 73,2%

Problem: What measured Wirksamkeit in % Substanz +Ripcord goes with "CCOCCN1CCCCC1" ?
Result: 56,0%

Problem: I have this compound here, O=C1CCCCC1CN1CCCCC1 (stereo not drawn) , and I need its recorded Wirksamkeit in % Substanz +Ripcord.
Result: 70,8%

Problem: Please give the measured Wirksamkeit in % Substanz +Ripcord for this compound: "c1ccc(OCCN2CCCCCC2)cc1"
Result: 85,2%

Problem: Entry "Clc1ccc(CN2CCCCC2)cc1" has what Wirksamkeit in % Substanz +Ripcord?
Result: 74,8%

Problem: Please give the measured Wirksamkeit in % Substanz +Ripcord for this compound: "c1ccc(OCCCN2CCCCCC2)cc1"
Result: 64,0%

Problem: Find the recorded Wirksamkeit in % Substanz +Ripcord belonging to CCOC(=O)C(c1ccccc1)C(C(=O)OCC)N1CCCC1 (stereo not drawn) and report it.
Result: 88,0%

Problem: Requested field: Wirksamkeit in % Substanz +Ripcord. Item: OC(CCl)CN1CCCCC1 (stereo not drawn) [1-N-Piperidino-2-hydroxi-3-chlor-propan]
Result: 54,8%

Problem: // returns reported Wirksamkeit in % Substanz +Ripcord for input C#CCN1CCCCC1CC (stereo not drawn)
Result: 92,0%

Problem: Tell me the measured Wirksamkeit in % Substanz +Ripcord of "CC(C)=CCCC(C)=CCCC(C)=CCN1CCCCC1" , please.
Result: 84,0%
